B1: library; a variant is named by its letters at N, in order (parent)
chain: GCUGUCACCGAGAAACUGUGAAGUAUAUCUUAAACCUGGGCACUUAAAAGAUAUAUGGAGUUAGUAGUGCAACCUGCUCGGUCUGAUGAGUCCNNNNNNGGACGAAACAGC

Variants of: B1
experimentNotes: normalized RNA/DNA level with ligand (relative to sTRSVctl = 100) (log10 (% of sTRSVctl)); HEK293T; ligand: cyclic di-GMP (c-di-GMP-II aptamer); ligand concentration (+) RNA-Seq: 1 mM; higher = less ribozyme self-cleavage, higher mRNA level
testConditions: reporter: mCherry (pCS4076), ligand present: yes
Recorded normalized RNA/DNA level with ligand (log10), one value per entry.
Answer with a bare number; do not write a unit.

# mutationNotation, numericReadout
measured = [
    ("CCCGCG", 1.9),
    ("GACAAG", 1.72),
    ("AACUCC", 1.91),
    ("AGAUUA", 1.69),
    ("CCGAAC", 1.72),
]

Sample `GGUUUA` — what was its normalized RNA/DNA level with ligand (log10)? 1.79

Sample `CAUGAC` — what was its normalized RNA/DNA level with ligand (log10)? 1.79

Sample `CGGCGG` — what was its normalized RNA/DNA level with ligand (log10)? 1.81

Sample `UGUGCA` — what was its normalized RNA/DNA level with ligand (log10)? 1.87

Recorded values, source the supplement of paper PMC6757056.
